- Tested on: Rattus norvegicus
- methodDescription: Immunosuppressive activity in po dosed LEW rat model assessed as inhibition of WKAH rat spleen cells-induced popliteal lymph node swelling administered qd for 4 days measured at day 4 by host versus graft reaction analysis
- Assay type: functional
- measurementConditions: 96 h, read-out: ID50 (the source's name)
metricName: ED50 (mg/kg)

- structureAsSmiles: "CCc1cc(CN2CC(C(=O)O)C2)sc1-c1noc(-c2ccc(Oc3ccccc3Cl)cc2)n1"
  testResult: 0.461
- structureAsSmiles: "CCc1cc(CN2CC(C(=O)O)C2)sc1-c1noc(-c2ccc(Oc3ccccc3)c(F)c2)n1"
  testResult: 0.142
- structureAsSmiles: "CCc1cc(CN2CC(C(=O)O)C2)sc1-c1noc(-c2ccc(Oc3ccccc3F)cc2)n1"
  testResult: 0.369
- structureAsSmiles: "CCc1cc(CN2CC(C(=O)O)C2)sc1-c1noc(-c2ccc(Oc3ccccc3)cc2)n1"
  testResult: 0.407

* * *

- systemTested: Sphingosine 1-phosphate receptor 1 (Homo sapiens)
- Sequence (P21453 whole entry): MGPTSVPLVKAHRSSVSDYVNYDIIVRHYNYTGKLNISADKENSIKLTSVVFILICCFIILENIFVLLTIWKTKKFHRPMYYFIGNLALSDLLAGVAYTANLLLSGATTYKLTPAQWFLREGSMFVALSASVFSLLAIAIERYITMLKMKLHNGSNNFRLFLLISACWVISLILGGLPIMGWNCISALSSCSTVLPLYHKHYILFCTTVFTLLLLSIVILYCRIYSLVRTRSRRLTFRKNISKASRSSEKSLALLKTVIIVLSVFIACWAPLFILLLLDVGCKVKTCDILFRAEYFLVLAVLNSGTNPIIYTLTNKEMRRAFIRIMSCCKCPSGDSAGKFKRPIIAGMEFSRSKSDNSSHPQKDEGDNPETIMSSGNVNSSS
- methodDescription: Agonist activity at human S1P1 receptor assessed as stimulation of [35S]GTPgamma binding
- Type: functional
pEC50: −log10 of the molar value.
Measured pEC50 of individual entries

- structureAsSmiles: "CCc1cc(CN2CC(C(=O)O)C2)sc1-c1noc(-c2ccc(Oc3ccccc3)c(Cl)c2)n1"
  pEC50: 8.30
- structureAsSmiles: "Cc1cccc(Oc2ccc(-c3nc(-c4csc(CN5CC(C(=O)O)C5)c4)no3)cc2)c1"
  pEC50: 6.70
- structureAsSmiles: "CCCCc1ccccc1Oc1ccc(-c2nc(-c3sc(CN4CC(C(=O)O)C4)cc3CC)no2)cc1"
  pEC50: 8.05
- structureAsSmiles: "CCc1cc(CN2CC(C(=O)O)C2)sc1-c1noc(-c2ccc(Oc3ccccc3C)cc2)n1"
  pEC50: 8.52
- structureAsSmiles: "CCc1cc(CN2CC(C(=O)O)C2)sc1-c1noc(-c2ccc(Oc3ccccc3Cl)cc2)n1"
  pEC50: 8.19

* * *

Measured Ratio EC50 by item
- Species: Homo sapiens
- methodDescription: Selectivity ratio of EC50 for human S1P3 receptor to EC50 for human S1P1 receptor

- structureAsSmiles: "Cc1ccc(Oc2ccc(-c3nc(-c4csc(CN5CC(C(=O)O)C5)c4)no3)cc2)cc1"
  limitOperator: "="
  Ratio EC50: 109
- structureAsSmiles: "O=C(O)C1CN(Cc2ccc(-c3noc(-c4cc(-c5ccccc5)c(C(F)(F)F)s4)n3)cc2)C1"
  limitOperator: "="
  Ratio EC50: 380
- structureAsSmiles: "Cc1cc(-c2noc(-c3ccc(Oc4ccccc4)cc3)n2)sc1CN1CC(C(=O)O)C1"
  limitOperator: ">"
  Ratio EC50: 800
- structureAsSmiles: "O=C(O)C1CN(Cc2cc(-c3noc(-c4ccc(Oc5ccccc5)cc4)n3)cs2)C1"
  limitOperator: "="
  Ratio EC50: 541
- structureAsSmiles: "Cc1cc(CN2CC(C(=O)O)C2)sc1-c1noc(-c2ccc(Oc3ccccc3)cc2)n1"
  limitOperator: ">"
  Ratio EC50: 1820
- structureAsSmiles: "O=C(O)C1CN(Cc2csc(-c3noc(-c4ccc(Oc5ccccc5)cc4)n3)c2)C1"
  limitOperator: ">"
  Ratio EC50: 588
- structureAsSmiles: "Cc1ccccc1Oc1ccc(-c2nc(-c3csc(CN4CC(C(=O)O)C4)c3)no2)cc1"
  limitOperator: "="
  Ratio EC50: 57
- structureAsSmiles: "CCc1cc(CN2CC(C(=O)O)C2)sc1-c1noc(-c2ccc(Oc3ccccc3)cc2)n1"
  limitOperator: ">"
  Ratio EC50: 5000
- structureAsSmiles: "Cc1cc(Oc2ccccc2)ccc1-c1nc(-c2csc(CN3CC(C(=O)O)C3)c2)no1"
  limitOperator: ">"
  Ratio EC50: 33
- structureAsSmiles: "CC(C)c1cc(CN2CC(C(=O)O)C2)sc1-c1noc(-c2ccc(Oc3ccccc3)cc2)n1"
  limitOperator: "="
  Ratio EC50: 200
- structureAsSmiles: "Cc1cc(-c2nc(-c3csc(CN4CC(C(=O)O)C4)c3)no2)ccc1Oc1ccccc1"
  limitOperator: "="
  Ratio EC50: 142
- structureAsSmiles: "O=C(O)C1CN(Cc2cc(-c3noc(-c4ccc(-c5ccccc5)cc4)n3)cs2)C1"
  limitOperator: ">"
  Ratio EC50: 666
- structureAsSmiles: "O=C(O)C1CN(Cc2cc(-c3noc(-c4cccc(-c5ccccc5)c4)n3)cs2)C1"
  limitOperator: ">"
  Ratio EC50: 23
- structureAsSmiles: "O=C(O)C1CN(Cc2cc(-c3noc(-c4cc(-c5ccccc5)c(C(F)(F)F)s4)n3)cs2)C1"
  limitOperator: "="
  Ratio EC50: 123
- structureAsSmiles: "Cc1cccc(Oc2ccc(-c3nc(-c4csc(CN5CC(C(=O)O)C5)c4)no3)cc2)c1"
  limitOperator: ">"
  Ratio EC50: 100
- structureAsSmiles: "O=C(O)C1CN(Cc2ccc(-c3noc(-c4ccc(Oc5ccccc5)cc4)n3)s2)C1"
  limitOperator: "="
  Ratio EC50: 900
- structureAsSmiles: "CCCOc1ccc(-c2nc(-c3csc(CN4CC(C(=O)O)C4)c3)no2)cc1"
  limitOperator: ">"
  Ratio EC50: 333
- structureAsSmiles: "CCc1cc(-c2noc(-c3ccc(Oc4ccccc4)cc3)n2)sc1CN1CC(C(=O)O)C1"
  limitOperator: ">"
  Ratio EC50: 1670
- structureAsSmiles: "CCCc1cc(CN2CC(C(=O)O)C2)sc1-c1noc(-c2ccc(Oc3ccccc3)cc2)n1"
  limitOperator: "="
  Ratio EC50: 433

* * *

- systemTested: Sphingosine 1-phosphate receptor 3 (Homo sapiens)
- Sequence (Q99500 whole entry): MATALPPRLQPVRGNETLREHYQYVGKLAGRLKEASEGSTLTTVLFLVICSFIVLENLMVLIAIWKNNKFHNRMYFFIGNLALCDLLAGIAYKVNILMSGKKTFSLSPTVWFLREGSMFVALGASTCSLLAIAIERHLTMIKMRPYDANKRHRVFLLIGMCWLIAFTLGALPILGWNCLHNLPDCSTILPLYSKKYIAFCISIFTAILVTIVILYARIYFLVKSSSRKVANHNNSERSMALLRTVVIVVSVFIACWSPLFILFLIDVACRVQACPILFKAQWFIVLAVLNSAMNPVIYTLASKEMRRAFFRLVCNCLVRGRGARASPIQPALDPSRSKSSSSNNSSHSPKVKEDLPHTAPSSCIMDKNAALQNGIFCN
- methodDescription: Agonist activity at human S1P3 receptor assessed as stimulation of [35S]GTPgamma binding
pEC50: −log10 of the molar value.

- structureAsSmiles: "CCc1cc(CN2CC(C(=O)O)C2)sc1-c1noc(-c2ccc(Oc3ccccc3F)cc2)n1"
  pEC50: "< 4.70"
- structureAsSmiles: "O=C(O)C1CN(Cc2ccc(-c3noc(-c4cc(-c5ccccc5)c(C(F)(F)F)s4)n3)cc2)C1"
  pEC50: 5.80
- structureAsSmiles: "O=C(O)C1CN(Cc2cc(-c3noc(-c4ccc(-c5ccccc5)cc4)n3)cs2)C1"
  pEC50: "< 4.70"
- structureAsSmiles: "Cc1cc(-c2nc(-c3csc(CN4CC(C(=O)O)C4)c3)no2)ccc1Oc1ccccc1"
  pEC50: 5.52
- structureAsSmiles: "O=C(O)C1CN(Cc2cc(-c3noc(-c4ccc(OCc5ccccc5)cc4)n3)cs2)C1"
  pEC50: "< 4.70"
- structureAsSmiles: "CCc1cc(CN2CC(C(=O)O)C2)sc1-c1noc(-c2ccc(Oc3ccccc3C(C)C)cc2)n1"
  pEC50: 4.96
- structureAsSmiles: "Cc1cccc(Oc2ccc(-c3nc(-c4csc(CN5CC(C(=O)O)C5)c4)no3)cc2)c1"
  pEC50: "< 4.70"
- structureAsSmiles: "CCCOc1ccc(-c2nc(-c3csc(CN4CC(C(=O)O)C4)c3)no2)cc1"
  pEC50: "< 4.70"
- structureAsSmiles: "O=C(O)C1CN(Cc2csc(-c3noc(-c4ccc(Oc5ccccc5)cc4)n3)c2)C1"
  pEC50: "< 4.70"

* * *

- systemTested: Sphingosine 1-phosphate receptor 1 (Homo sapiens)
- methodDescription: Agonist activity at human S1P1 receptor assessed as stimulation of [35S]GTPgamma binding
metricName: log10 of EC50 (log10 of the value in nM)

- structureAsSmiles: "CCCc1ccccc1Oc1ccc(-c2nc(-c3sc(CN4CC(C(=O)O)C4)cc3CC)no2)cc1"
  log10 of EC50: 1.11
- structureAsSmiles: "Cc1cc(Oc2ccccc2)ccc1-c1nc(-c2csc(CN3CC(C(=O)O)C3)c2)no1"
  log10 of EC50: 2.78
- structureAsSmiles: "CCc1cc(CN2CC(C(=O)O)C2)sc1-c1noc(-c2ccc(Oc3ccccc3)c(OC)c2)n1"
  log10 of EC50: 1.15
- structureAsSmiles: "CCc1cc(CN2CC(C(=O)O)C2)sc1-c1noc(-c2ccc(Oc3ccccc3C(C)C)cc2)n1"
  log10 of EC50: 0.65
- structureAsSmiles: "CCc1cc(CN2CC(C(=O)O)C2)sc1-c1noc(-c2ccc(Oc3ccccc3)cc2)n1"
  log10 of EC50: 0.60
- structureAsSmiles: "Cc1ccc(Oc2ccc(-c3nc(-c4csc(CN5CC(C(=O)O)C5)c4)no3)cc2)cc1"
  log10 of EC50: 2.04
- structureAsSmiles: "O=C(O)C1CN(Cc2cc(-c3noc(-c4cc(-c5ccccc5)c(C(F)(F)F)s4)n3)cs2)C1"
  log10 of EC50: 0.81
- structureAsSmiles: "O=C(O)C1CN(Cc2ccc(-c3noc(-c4ccc(Oc5ccccc5)cc4)n3)s2)C1"
  log10 of EC50: 0.00
- structureAsSmiles: "CCc1cc(CN2CC(C(=O)O)C2)sc1-c1noc(-c2ccc(Oc3ccccc3)c(C)c2)n1"
  log10 of EC50: 0.88
- structureAsSmiles: "Cc1cc(-c2nc(-c3csc(CN4CC(C(=O)O)C4)c3)no2)ccc1Oc1ccccc1"
  log10 of EC50: 1.32
- structureAsSmiles: "O=C(O)C1CN(Cc2ccc(-c3noc(-c4cc(-c5ccccc5)c(C(F)(F)F)s4)n3)cc2)C1"
  log10 of EC50: 0.62
- structureAsSmiles: "Cc1cc(-c2noc(-c3ccc(Oc4ccccc4)cc3)n2)sc1CN1CC(C(=O)O)C1"
  log10 of EC50: 1.40
- structureAsSmiles: "O=C(O)C1CN(Cc2cc(-c3noc(-c4ccc(-c5ccccc5)cc4)n3)cs2)C1"
  log10 of EC50: 1.48
- structureAsSmiles: "CCc1cc(CN2CC(C(=O)O)C2)sc1-c1noc(-c2ccc(Oc3ccccc3F)cc2)n1"
  log10 of EC50: 0.93
- structureAsSmiles: "Cc1ccccc1Oc1ccc(-c2nc(-c3csc(CN4CC(C(=O)O)C4)c3)no2)cc1"
  log10 of EC50: 1.54
- structureAsSmiles: "CCCOc1ccc(-c2nc(-c3csc(CN4CC(C(=O)O)C4)c3)no2)cc1"
  log10 of EC50: 1.78
- structureAsSmiles: "CCc1cc(CN2CC(C(=O)O)C2)sc1-c1noc(-c2ccc(Oc3ccccc3OC)cc2)n1"
  log10 of EC50: 0.60
- structureAsSmiles: "CCc1cc(CN2CC(C(=O)O)C2)sc1-c1noc(-c2ccc(Oc3ccccc3)c(F)c2)n1"
  log10 of EC50: 0.70
- structureAsSmiles: "Cc1cc(CN2CC(C(=O)O)C2)sc1-c1noc(-c2ccc(Oc3ccccc3)cc2)n1"
  log10 of EC50: 1.04
- structureAsSmiles: "O=C(O)C1CN(Cc2csc(-c3noc(-c4ccc(Oc5ccccc5)cc4)n3)c2)C1"
  log10 of EC50: 1.53
- structureAsSmiles: "O=C(O)C1CN(Cc2cc(-c3noc(-c4ccc(Oc5ccccc5)cc4)n3)cs2)C1"
  log10 of EC50: 0.93
- structureAsSmiles: "CCc1cc(-c2noc(-c3ccc(Oc4ccccc4)cc3)n2)sc1CN1CC(C(=O)O)C1"
  log10 of EC50: 1.08
- structureAsSmiles: "CCc1ccccc1Oc1ccc(-c2nc(-c3sc(CN4CC(C(=O)O)C4)cc3CC)no2)cc1"
  log10 of EC50: 0.81
- structureAsSmiles: "CC(C)c1cc(CN2CC(C(=O)O)C2)sc1-c1noc(-c2ccc(Oc3ccccc3)cc2)n1"
  log10 of EC50: 1.88
- structureAsSmiles: "CCCc1cc(CN2CC(C(=O)O)C2)sc1-c1noc(-c2ccc(Oc3ccccc3)cc2)n1"
  log10 of EC50: 1.48
- structureAsSmiles: "O=C(O)C1CN(Cc2cc(-c3noc(-c4cccc(-c5ccccc5)c4)n3)cs2)C1"
  log10 of EC50: 2.93
